Tested on: LOX IMVI melanoma
Assay explanation: NCI-60 one-dose screen, 48 h (100 = growth as untreated, 0 = no growth, -100 = all killed)
Applied conditions: 10 µM unless noted
Compounds without any hit were thinned out: in the full panel of roughly 83,000, 20% have a hit.
Quantity: growth (%)
Enter your answer as a number in %; do not include the unit.

In: What growth value was documented for this compound, NC(=NC1C2CC3CC(C2)CC1C3)Nc1ccc(I)cc1 (centres undefined) ?
Out: 61.9

In: For COc1ccc(-c2nc3ccc(-c4nc5ccc(N6CCN(c7ccc(F)cc7)CC6)cc5[nH]4)cc3[nH]2)cc1OC , what is its reported growth?
Out: 37.1

In: # growth lookup, item O=c1c(F)cn(Cc2ccccc2CCl)c(=O)n1Cc1ccccc1CCl
Out: -81.7

In: Requested read-out: growth. Entry: C=C(C)C1CC(O)C2(C)CCCC3C2C1CC(C)C3(C)CC/C(C)=C/C(O)C1CCC(=O)c2c(OC)cc(OC)cc21 (centres undefined)
Out: 22.5

In: Suppose we examine the compound COc1ccc(-c2cc(=O)c3c(OC)c4ccoc4cc3o2)cc1 ; what growth value has been reported?
Out: 95.1

In: What does the record list as growth for CCOC(=O)c1c(CN2CCN(C)CC2)nc2ccc(Cl)cc2c1-c1ccccc1 ?
Out: 54.4

In: Given the compound Cc1ccc2oc(=O)cc(C3c4ccc([nH]4)C(c4cc(=O)oc5ccc(C)cc45)c4ccc([nH]4)C(c4cc(=O)oc5ccc(C)cc45)c4ccc([nH]4)C(c4cc(=O)oc5ccc(C)cc45)c4ccc3[nH]4)c2c1 (centres undefined) , what is its reported growth?
Out: -70.6

In: // returns reported growth for input Cc1cn2c(/C=C3/C(=O)Nc4c3ccc3ccccc43)c(C(F)(F)F)nc2s1
Out: 33.6

In: Give its growth value. Item: COc1ccc(-n2nc(C)c3c(Oc4ccc(NC(=O)Nc5c(Cl)cccc5Cl)cc4)ncnc32)cc1
Out: 100

* * *

System: SK-MEL-2 melanoma
Assay explanation: NCI-60 one-dose screen, 48 h (100 = growth as untreated, 0 = no growth, -100 = all killed)
Applied conditions: 10 µM unless noted
Compounds without any hit were thinned out: in the full panel of roughly 83,000, 20% have a hit.
Definition: the class of an entry is the range in bin A (below 60%), bin B (60% to below 90%), bin C (90% or more) that contains its growth.

In: Using the reported growth, which band applies to CCCCn1cnc2c(Sc3c([N+](=O)[O-])ncn3C)nc(N)nc21 ?
Out: bin C

In: Record CC(=O)NCC1c2c(n(C)c3c(Cl)c(Cl)ccc23)C(=O)NC1(C)C (stereo not given) — which class?
Out: bin C

In: Which growth band matches O=C(COc1ccc(/C=C2\COc3ccccc3C2=O)cc1)Nc1nccs1 ?
Out: bin B

In: Assign a bin to Cc1nc(Nc2ccc(F)c(Cl)c2)sc1C(=O)O
Out: bin A

In: Class (by measured growth) for C[n+]1ccccc1/C=C/c1ccc2cccc(O)c2n1
Out: bin C

In: Place this compound in its band: N#CN1CC[C@H](C(=O)Nc2cc3cc(C(N)=O)ccc3cn2)C1
Out: bin A

In: Please indicate the class for Cn1nc(N)c2cc([C@@H]3Nc4ccc5[nH]ncc5c4[C@H]4C5CCC(C5)[C@@H]34)ccc21 (stereo not given in full) based on its growth.
Out: bin A

In: Quick check: band for OC(c1cc2cc(Cl)c(Cl)cc2c2cc(C(F)(F)F)ccc12)C1CCCCN1 (stereo not given)
Out: bin A

In: Where would COc1cccc(NC(=O)c2sc3nc(C)c(C(C)=O)cc3c2N)c1 land among the classes by reported growth?
Out: bin A

In: Note: place this compound into its band. Item: Cn1c(=O)c2c(nc3n(-c4ccc(Cl)cc4Cl)c(Sc4nc(-c5ccccc5)c(C#N)c(=O)[nH]4)cn23)n(C)c1=O
Out: bin C

In: Please let me know in which category the item O=C1C=C(OCC=C(Cl)Cl)C(=O)c2ccccc21 belongs.
Out: bin B

In: Form: Item = CN1CCN(c2nc(NCCCCNc3ccnc4cc(Cl)ccc34)c3ccccc3n2)CC1 ; Class = ?
Out: bin B

In: # bin lookup: classify COc1ccc(/C=C/c2nc(-c3n[nH]c(=O)n3-c3ccccc3)c3ccccc3n2)cc1 by its growth
Out: bin C

In: # bin label for COc1ccc(SC2c3cc(OC)c(OC)cc3Oc3nc(N)c(C#N)c(N)c32)cc1 (stereo not given)
Out: bin A

In: Exam item: assign CC1C(/C=N/Nc2ccccc2)C(C#N)(C#N)C1(C#N)C#N (stereo not given) to the correct category.
Out: bin B

In: Which category fits this record: Cn1ncc2c(=O)nc3c(-c4ccccc4)n[nH]n3c21
Out: bin C

In: For O=C1c2cc3c(cc2-c2c1c1ccc(F)cc1c(=O)n2C[C@H](O)[C@@H](O)[C@H](O)CO)OCO3 , which growth bin applies?
Out: bin A

In: Each compound maps to one class by growth. Which class for C=C1C(=O)O[C@H]2[C@H]1CC/C(COC(=O)c1cc3cc(OC)ccc3[nH]1)=C\CC[C@@]1(C)O[C@@H]21 ?
Out: bin A

In: Field: class (growth) — entry: COc1cccc(Nc2nc(SC)nc(-c3cccc([N+](=O)[O-])c3)c2C#N)c1
Out: bin C

In: # bin label for CCOc1nc(-c2ccccc2)cc2c(O)c(C(=O)O)[nH]c(=O)c12
Out: bin C

In: Where would CCCCCCN(CCCCCC)CCC(O)c1ccc2ccccc2c1 (stereo not given) land among the classes by reported growth?
Out: bin B

In: Please report the category associated with CCCCN(CCCC)CCCn1c(-c2ccccc2)ccc1-c1ccccc1 , nothing else.
Out: bin C

In: Which class holds CC(=O)c1cc2c(N)c(C(=O)Nc3cccc4ccccc34)sc2nc1C ?
Out: bin A

In: Category of COc1ccc(-n2nc(C)c3c(Nc4ccc(NC(=O)Nc5cccc(C(F)(F)F)c5)cc4)ncnc32)cc1 , please.
Out: bin A

In: Category of Cc1ccc(NC(=O)/C=C/c2ccccc2)c(C(N)=O)c1 :
Out: bin B

In: Bin this entry: CC(=O)OC[C@H]1O[C@H](OC(C)=O)[C@H](NC(=O)/C=C/CCl)[C@@H](OC(C)=O)[C@@H]1OC(C)=O
Out: bin B

In: Textbook exercise: identify the category of the compound given here, CCCOc1cc2ccccc2cc1C(=O)Nc1nc(NC)c2c(ccc3nccc32)[nH]1 , according to its measured value.
Out: bin A

In: Category lookup for the compound CC(=O)Oc1ccc(Cl)cc1CN(C(C)=O)C1CCCCC1
Out: bin C

In: Quick check: band for NS(=O)(=O)c1ccc(CN=C2NC(=O)S/C2=C\c2ccc(Br)cc2)cc1
Out: bin C

In: Sort O=c1cc(CSc2nnc(-c3ccc(F)cc3)o2)c2ccc3ccccc3c2o1 into one of the categories.
Out: bin B

In: Sort into band: CCc1c(Nc2ccccc2C)nc(N)[nH]c1=O
Out: bin C

In: Please classify: CCOC(=O)c1c(C)oc2ncnc(N3CCN(C(=O)COc4ccc(SC)cc4)CC3)c12
Out: bin C

In: Which growth category applies to Cc1nn(-c2cc(=O)[nH]c3ccc(Cl)cc23)c(N)c1C#N here?
Out: bin C

In: Band assignment needed for COc1ccc(C(=O)COc2cccc(/C=C3\CSc4ccccc4C3=O)c2)cc1 please.
Out: bin A

In: Form field 'band' for COc1ccc(CN2c3ccccc3Oc3ccccc32)cc1O
Out: bin A
